Test: Pharmacokinetics in ICR mice after intravenous and intragastric administration
Format: in vivo
Conditions: male, ICR, mouse, plasma, iv, 2 mg/kg, ICR mice, IV 2 mg/kg, mean of 3 animals; read-out: Tmax
Measured Tmax values are reported for all entries that follow.
measure: Tmax (min)

[[record]]
compound_smiles = "COc1cc(OC)c(-c2nc3c(n2C(C)C)[C@@]2(C(=O)Nc4cc(Cl)ccc42)N(c2cc(Cl)cnc2C)C3=O)cn1"
measure = "Tmax"
unit_of_measure = "min"
reported = 4.98

[[record]]
compound_smiles = "COc1ccc(-c2nc3c(n2C(C)C)[C@@]2(C(=O)Nc4cc(Cl)ccc42)N(c2cc(Cl)cnc2C)C3=O)c(OC)c1"
measure = "Tmax"
unit_of_measure = "min"
reported = 4.98

[[record]]
compound_smiles = "COc1ncc(-c2nc3c(n2C(C)C)[C@@]2(C(=O)Nc4cc(Cl)ccc42)N(c2cc(Cl)ccc2F)C3=O)c(OC)n1"
measure = "Tmax"
unit_of_measure = "min"
reported = 4.98

